Biological target: T1, σ^E (truncated sigma factor E, residues 17-239, lacking the N-terminal membrane-anchored pro-sequence) (Bacillus subtilis, UniProt P06222 17-239)
T1 construct: Cloned into pET28-TxrA; The tag was removed with TEV 'when required'; also called sigma E; SigE; source: E. coli BL21(DE3)pLysS, purified (HisTrap Ni Sepharose, Superdex75 SEC)
T1 sequence (looked up): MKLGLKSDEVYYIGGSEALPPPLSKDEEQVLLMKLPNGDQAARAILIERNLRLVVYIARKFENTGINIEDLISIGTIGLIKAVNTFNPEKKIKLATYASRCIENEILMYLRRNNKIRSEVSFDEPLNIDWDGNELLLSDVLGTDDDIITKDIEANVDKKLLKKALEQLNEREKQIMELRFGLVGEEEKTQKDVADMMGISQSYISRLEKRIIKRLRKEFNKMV
Test: ITC; cell 60 uM CsfB^A48E, syringe 395 uM σ^E; 25°C; 19 injections of 2 ul; 50 mM HEPES pH 7.5, 150 mM KCl, 0.5 mM TCEP; fitted assuming 1:1 stoichiometry
Conditions: both partners purified
Measurement Kind: pKd
One number for each entry, as −log10 of the molar value.

Entry CsfB^A48E (full-length CsfB variant A48E, residues 1-64) (natural protein, Bacillus subtilis, UniProt P37534 1-64, looked up, Anti-sigma factor CsfB (also called Gin), Bacillus subtilis strain PY79, full length, residues 1-64, with A48E at the known cleavage point; Made by site-directed mutagenesis of pNIC28-CsfB; The His-tag was removed with TEV 'when required'; 15N-labelled for the NMR titrations; also called Gin A48E; source: E. coli BL21(DE3)pLysS, purified (HisTrap Ni Sepharose, Superdex75 SEC)) MDETVKLNHTCVICDQEKNRGIHLYTKFICLDCERKVISTSTSDPDYEFYVKKLKSIHTPPLYS has what pKd?
7.90

All figures here come from paper PMC5890618.
